Tested on: CSNK2A2
condition-summary: concentration: 1 μM, replicates: in singlicate; n = 1;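 note: KINOMEscan kinase panel screen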
parameter: %Inh (%)
Just the number in %, nothing appended.

1. Cc1occc1-c1ncc(OC[C@@H](N)Cc2c[nH]c3ccccc23)cc1-c1ccc2[nH]nc(C)c2c1.O=C(O)C(F)(F)F = 8
2. COc1cccc(-c2ccc3c(NC(=O)C4CC4)n[nH]c3n2)c1 = 79
3. Cc1ccc(C(=O)N2CC[C@@H](O)C2)cc1-n1c(C)cc(OCc2ccc(F)cc2F)c(Br)c1=O = 0

Requested field: %Inh. Item: O=C(Nc1n[nH]c2cc(-c3ccoc3)ccc12)C1CC1 66

Requested field: %Inh. Item: Clc1ccc(-c2nn3ncccc3c2-c2ccnc(Nc3ccc4c(c3)OCCO4)n2)cc1 8

###

Reported %Inh values are given for each entry in this list.
Test system: ACVR2B
condition-summary: concentration: 1 μM, replicates: in singlicate; n = 1
Please make sure the unit comes right after the number.

Known %Inh results, listed for orientation:
1) COc1ccc(Nc2nccc(NCCNC(=O)c3cc4ccccc4s3)n2)cc1 = 0%
2) C[C@@H](Oc1cc(-n2cnc3cc(-c4ccnc(NCCS(C)(=O)=O)c4)ccc32)sc1C(N)=O)c1ccccc1Cl = 3%
3) Cn1cc(-c2[nH]c3cc(NC(=O)[C@H](N)C4CCCCC4)cc4c3c2C=NNC4=O)cn1 = 44%
4) COCCOCCOc1cc2ncc3c4ccc(C#N)cc4[nH]c3c2cc1OC = 0%
5) CN(c1ccc(NC(=O)Nc2cc(C(F)(F)F)ccc2F)cc1)c1ccnc(Nc2ccc(S(N)(=O)=O)cc2)n1 = 14%
6) COc1cc2c(cc1OCCN1CCNCC1)ncc1c3ccc(C#N)cc3[nH]c21 = 0%
7) Cn1cc(-c2ccc3c(c2)CCN3C(=O)Cc2cccc(Cl)c2)c2c(N)ncnc21 = 53%
8) COc1cccc(-c2ccc3c(NC(=O)C4CC4)n[nH]c3n2)c1 = 22%

From here, focus on the item given below.
Give ACVR2B %Inh for CN1CCN(CCCNc2nccc(-c3c(-c4ccc(F)cc4)nn4cc(C(F)(F)F)ccc34)n2)CC1 0%

###

System: TSSK1B
condition-summary: concentration: 1 μM, replicates: in singlicate; n = 1
parameter: %Inh (%)
Just the number in %, nothing appended.

Known %Inh results, listed for orientation:
1) Cn1cc(-c2[nH]c3cc(NC(=O)[C@H](N)C4CCCCC4)cc4c3c2C=NNC4=O)cn1 = 73
2) O=C(Nc1ccccc1F)NC1CCN(c2ccnc(Nc3ccc(F)cc3)n2)CC1 [GSK1379800] = 1
3) O=C(Nc1cccc(-c2nn3ccccc3c2-c2ccnc(Nc3cccc(C(F)(F)F)c3)n2)c1)c1c(F)cccc1F [GSK292658] = 2
4) CN(c1ccc(NC(=O)Nc2cc(C(F)(F)F)ccc2F)cc1)c1ccnc(Nc2ccc(S(N)(=O)=O)cc2)n1 [GW809893] = 5

From here, focus on the item given below.
Requested field: %Inh. Item: O=C(NC1CCN(c2ccnc(Nc3ccc(F)cc3)n2)C1)c1cc2ccccc2s1 (centres unmarked) [GSK1379716] 5

###

Tested on: TRKA
Construct: gene NTRK1
condition-summary: concentration: 1 μM, replicates: in singlicate; n = 1
parameter: %Inh (%)
Just the number in %, nothing appended.

Requested field: %Inh. Item: Oc1cc(Nc2ccnc3cc(I)ccc23)ccc1F [GW552771] 0

Requested field: %Inh. Item: CN(C)S(=O)(=O)c1cc(-c2ccc3nccc(-c4cccc(S(N)(=O)=O)c4)c3c2)cnc1N [GSK1669921] 87

Requested field: %Inh. Item: COCCOCCOc1cc2ncc3c4ccc(C#N)cc4[nH]c3c2cc1OC 98

Requested field: %Inh. Item: Cc1ccc(C(=O)Nc2ccc(Nc3ccnc4cc(-c5nccs5)ccc34)cc2O)cc1.Cl [GW494702] 60

Requested field: %Inh. Item: CCn1c(-c2nonc2N)nc2c(C#CC(C)(C)O)ncc(OCCCCN)c21.O=C(O)C(F)(F)F.O=C(O)C(F)(F)F [GSK507274] 0

Requested field: %Inh. Item: Cn1cc(-c2[nH]c3cc(NC(=O)[C@H](N)C4CCCCC4)cc4c3c2C=NNC4=O)cn1 91.6

###

Test system: FLT1
condition-summary: concentration: 1 μM, replicates: in singlicate; n = 1
Consider the cut-off 20%. If the recorded %Inh is strictly smaller, the label is MET; if not, the label is NOT MET.

1. Clc1ccc(-c2nn3ncccc3c2-c2ccnc(Nc3ccc4c(c3)OCCO4)n2)cc1 = NOT MET

Lab note: %Inh threshold 20%. Does this molecule come in strictly under it? CN1CCN(CCCNc2nccc(-c3c(-c4ccc(F)cc4)nn4cc(C(F)(F)F)ccc34)n2)CC1 NOT MET

Lab note: %Inh threshold 20%. Does this molecule come in strictly under it? O=C(Nc1n[nH]c2nc(-c3ccc(O)cc3)ccc12)C1CC1 MET

Lab note: %Inh threshold 20%. Does this molecule come in strictly under it? FC(F)(F)c1ccc(/C=C/c2cncnc2Nc2ccc3[nH]c(Cc4ccccc4)nc3c2)cc1 MET

Lab note: %Inh threshold 20%. Does this molecule come in strictly under it? O=C(Nc1cccc(-c2nn3ncccc3c2-c2ccnc(Nc3ccccc3)n2)c1)c1c(F)cccc1F NOT MET

Lab note: %Inh threshold 20%. Does this molecule come in strictly under it? COc1cccc(C2=C(Nc3ccc(Cl)c(C(=O)O)c3)C(=O)NC2=O)c1 NOT MET

Lab note: %Inh threshold 20%. Does this molecule come in strictly under it? COc1ccc(-c2coc3ccc(-c4nnc(SCc5ccc(OC)c(C(F)(F)F)c5)o4)cc23)cc1 MET

Lab note: %Inh threshold 20%. Does this molecule come in strictly under it? COCCOCCOc1cc2ncc3c4ccc(C#N)cc4[nH]c3c2cc1OC MET

Lab note: %Inh threshold 20%. Does this molecule come in strictly under it? COc1cccc(-c2ccc3c(NC(=O)C4CC4)n[nH]c3n2)c1 MET

Lab note: %Inh threshold 20%. Does this molecule come in strictly under it? Cc1ccc(F)c(C(=O)Nc2cccc(-c3nn4ccccc4c3-c3ccnc(Nc4cccc(F)c4)n3)c2)c1F NOT MET

Lab note: %Inh threshold 20%. Does this molecule come in strictly under it? O=C(O)C(F)(F)F.O=C(O)C(F)(F)F.O=c1[nH]ccc2nc(N[C@@H]3CCCNC3)nc(Nc3ccc(S(=O)(=O)N4CCOCC4)cc3)c12 NOT MET

Lab note: %Inh threshold 20%. Does this molecule come in strictly under it? CCn1c(-c2nonc2N)nc2c(C#CC(C)(C)O)nc(OC[C@H](N)c3ccccc3)cc21 MET

###

Tested on: LRRK2
condition-summary: concentration: 1 μM, replicates: in singlicate; n = 1
Reported %Inh values are given for each entry in this list.
Just the number in %, nothing appended.

Known %Inh results, listed for orientation:
1) COc1cccc(C(=O)Nc2cccc(Oc3ccc4nc(NC(=O)C5CC5)cn4n3)c2)c1 = 3
2) COc1ccc(-c2coc3ccc(-c4nnc(SCc5ccc(OC)c(C(F)(F)F)c5)o4)cc23)cc1 = 0

Give LRRK2 %Inh for CCc1ccc(-c2ccc3c(c2)-c2c(cnn2C)S(=O)(=O)N3C)cc1 1

Give LRRK2 %Inh for CN(C)S(=O)(=O)c1cc(-c2ccc3nccc(-c4cccc(S(N)(=O)=O)c4)c3c2)cnc1N [GSK1669921] 27

###

System: TIE1
condition-summary: concentration: 1 μM, replicates: in singlicate; n = 1
parameter: %Inh
Please make sure the unit comes right after the number.

1) CCCCc1nn2ncccc2c1-c1ccnc(Nc2ccc(N3CCN(C)CC3)cc2)n1 = 93.6%

Give TIE1 %Inh for CC(=O)Nc1nc2cnc(Nc3cc(NC(=O)c4cccc(C5(C#N)CC5)c4Cl)ccc3C)nc2s1 7%

###

System: CSNK2A1
condition-summary: concentration: 1 μM, replicates: in singlicate; n = 1
parameter: %Inh (%)
Just the number in %, nothing appended.

Known %Inh results, listed for orientation:
1. C[C@@H](Oc1cc(-n2cnc3cc(-c4ccnc(NCCS(C)(=O)=O)c4)ccc32)sc1C(N)=O)c1ccccc1Cl = 16
2. CSc1cccc2c(-c3ccncn3)c(-c3ccc(F)cc3)nn12 = 0
3. COc1cccc(NC(=O)NC2CCN(c3ccnc(Nc4cc(OC)c(OC)c(OC)c4)n3)C2)c1 (centres unmarked) = 12
4. Nc1ncnc2c1nc(-c1ccccc1)n2-c1ccccc1 = 0
5. c1ccc(-c2cnc3nccnn23)cc1 = 0
6. CN(C)S(=O)(=O)c1cc(-c2ccc3nccc(-c4cccc(S(N)(=O)=O)c4)c3c2)cnc1N = 11
7. COc1cc(Nc2nccc(N3CCC(NC(=O)Nc4cccc(C(C)=O)c4)C3)n2)cc(OC)c1OC (centres unmarked) = 13

From here, focus on the item given below.
Requested field: %Inh. Item: O=C(Nc1cccc(Oc2ccc3nc(NC(=O)C4CC4)cn3n2)c1)c1ccccc1C(F)(F)F 0
